# system: full length active recombinant SYK enzyme (Homo sapiens)
# Construct: full length active recombinant SYK enzyme (Millipore, Calif.); purchased Millipore
# test-details: Inhibition of Syk tyrosine phosphorylation activity (LANCE TR-FRET)
# Assay type: biochemical
# recorded-conditions: Table 3; 1 nM SYK, 100 μM ATP; read-out: Syk IC50 code
experimental-readout: IC50

Examples with answers:
compound=CS(=O)(=O)Cc1ccc(Nc2nc(NC3CCC3)c3cc[nH]c3n2)cc1 experimental_readout=IC50 result="100 to 1000 nM"
compound=CN(C)CC1CCN(c2nc(Nc3ccc(C(N)=O)cc3)ncc2F)CC1 experimental_readout=IC50 result="> 1000 nM"
compound=N[C@H]1CC[C@@H](Nc2nc(Nc3ccc4c(c3)CCC(=O)N4)ncc2F)CC1 experimental_readout=IC50 result="100 to 1000 nM"
compound=CC(=O)N1CCN(c2ccc(Nc3ncc(F)c(N4CCC(NC(=O)CC#N)CC4)n3)cc2)CC1 experimental_readout=IC50 result="> 1000 nM"
compound=Cc1cc2c(NC3CCC3)nc(Nc3ccc4cn[nH]c4c3)nc2[nH]1 experimental_readout=IC50 result="> 1000 nM"
compound=CN(CC(=O)O)S(=O)(=O)c1ccc(Nc2nc(NC3CCC3)c3cc[nH]c3n2)cc1 experimental_readout=IC50 result="10 to 100 nM"
compound=COC(=O)N(C)c1ccc(Nc2nc(NC3CCC3)c3cc[nH]c3n2)cc1 experimental_readout=IC50 result="100 to 1000 nM"
compound="CC(=O)N(C)c1ccc(Nc2nc(NC3CCCCC3N)c3cc[nH]c3n2)cc1 (stereo not drawn)" experimental_readout=IC50 result="> 1000 nM"

Need IC50 of "Clc1c[nH]c2nc(Nc3ccc4cn[nH]c4c3)nc(NC3CCC3)c12" , thanks.
1 to 10 nM

Give its IC50 value. Item: "CC(=O)N1CCN(c2ccc(Nc3ncc(Cl)c(N4CCC(CN)CC4)n3)cc2)CC1"
10 to 100 nM

Can you share its IC50? I mean this compound: "N#Cc1c[nH]c2nc(Nc3ccc(C(N)=O)cc3)nc(NC3CC3)c12"
10 to 100 nM

====

Quick note: these are pIC50 numbers for system: Purified human JAK3 (Homo sapiens, UniProt P52333)
Sequence (P52333 781-1124 limits assumed): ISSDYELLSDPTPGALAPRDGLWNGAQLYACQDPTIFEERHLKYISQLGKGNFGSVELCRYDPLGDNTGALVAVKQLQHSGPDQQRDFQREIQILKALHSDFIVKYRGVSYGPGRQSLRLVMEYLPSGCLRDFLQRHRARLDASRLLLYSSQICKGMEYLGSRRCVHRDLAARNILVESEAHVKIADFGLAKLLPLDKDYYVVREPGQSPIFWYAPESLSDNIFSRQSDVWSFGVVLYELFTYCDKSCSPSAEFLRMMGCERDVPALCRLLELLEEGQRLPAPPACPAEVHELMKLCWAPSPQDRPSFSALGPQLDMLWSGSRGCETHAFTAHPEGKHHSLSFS
pIC50: −log10 of the molar value.

# example entries with known answers
compound="CC(=O)N1CCN(c2ccc(Nc3nc(N4CCC(CN)CC4)c4cc[nH]c4n3)cc2)CC1 [drawing 208]" experimental_readout=pIC50 result="6.00 to 7.00"
compound="CC(=O)c1c[nH]c2nc(Nc3ccc4cn[nH]c4c3)nc(NC3CC3)c12 [drawing 207]" experimental_readout=pIC50 result="< 6.00"
compound="N#Cc1c[nH]c2nc(Nc3ccc4c(c3)CCC(=O)N4)nc(NC3CC3)c12 [drawing 209]" experimental_readout=pIC50 result="7.00 to 8.00"
compound="N#CCC(=O)N1CCCC(Nc2nc(Nc3ccc(C(N)=O)cc3)nc3[nH]ccc23)C1 (stereo not shown) [drawing 212]" experimental_readout=pIC50 result="7.00 to 8.00"
compound="c1cc2c(NC3CC3)nc(Nc3ccc4cn[nH]c4c3)nc2[nH]1 [drawing 204]" experimental_readout=pIC50 result="6.00 to 7.00"

Which value of pIC50 has been reported for N#Cc1c[nH]c2nc(Nc3ccc(S(N)(=O)=O)cc3)nc(NC3CC3)c12 [drawing 210] in the records?
7.00 to 8.00

pIC50 for NC(=O)c1c[nH]c2nc(Nc3ccc4c(c3)CCC(=O)N4)nc(NC3CC3)c12 [drawing 211] ?
< 6.00
